- testTarget: HNF4alpha8 (COS-7 nuclear extract) (Homo sapiens, UniProt P41235-5 1-452)
- Sequence: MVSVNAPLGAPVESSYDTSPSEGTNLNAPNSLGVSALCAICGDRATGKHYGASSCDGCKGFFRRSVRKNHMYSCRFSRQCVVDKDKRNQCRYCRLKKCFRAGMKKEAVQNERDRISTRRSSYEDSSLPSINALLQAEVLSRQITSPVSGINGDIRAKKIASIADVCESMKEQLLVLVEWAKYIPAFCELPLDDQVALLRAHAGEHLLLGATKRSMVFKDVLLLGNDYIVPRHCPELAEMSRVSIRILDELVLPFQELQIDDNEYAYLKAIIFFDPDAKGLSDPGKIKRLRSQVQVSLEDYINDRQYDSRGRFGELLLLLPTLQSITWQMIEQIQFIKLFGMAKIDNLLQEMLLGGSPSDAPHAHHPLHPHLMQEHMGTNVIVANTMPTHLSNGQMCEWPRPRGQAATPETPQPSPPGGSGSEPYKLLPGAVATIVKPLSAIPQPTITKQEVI
- protocolNotes: protein-binding microarray; COS-7 nuclear extract on double-stranded Agilent 4x180k PBM; binding buffer, salt, pH and temperature not given in the material; high values mean tight binding
- measurementConditions: chain copies: 2; label: 3' end of strand 1 on the slide; dsDNA, one strand shown
Whole data set: some 18,000 sequences, median “log2 normalized intensity” near 0.36, cut for the highest 2% near 7.3. The full list was thinned out, with the highest values kept by preference.
I'd appreciate it if you marked entries Y when binding signal is lower than 0.6 log2 normalized intensity and N when it is not.

Reference set, count: 2
# seqString, classification
measured = [
    ("TGTTTGTTTTGAGATAGGGTCTTGCTTTGTGCCTAGGGAGATTAGAGTATCGGTCGA", "N"),
    ("CCTTTGCCCTCCAAACTGAGAGATTTTTTCGCCTAGGGAGATTAGAGTATCGGTCGA", "N"),
]

Does ATTTCTAGGTTTGATCTTTGCCCTACAATTGCCTAGGGAGATTAGAGTATCGGTCGA have binding signal strictly under 0.6 log2 normalized intensity?
N

Try TGTGGGTTCAAATCCATTCAGCAGCGTGTAGCCTAGGGAGATTAGAGTATCGGTCGA next.
Y

Now try CACTTCCCGAGTGAGGCAATGCCTCGCCCTGCCTAGGGAGATTAGAGTATCGGTCGA .
Y

Ok, now ATTGCCGACCTCATGAGTAGAGAGCAATCAGCCTAGGGAGATTAGAGTATCGGTCGA
Y

###

- testTarget: HNF4alpha8 (COS-7 nuclear extract) (Homo sapiens, UniProt P41235-5 1-452)
- Sequence: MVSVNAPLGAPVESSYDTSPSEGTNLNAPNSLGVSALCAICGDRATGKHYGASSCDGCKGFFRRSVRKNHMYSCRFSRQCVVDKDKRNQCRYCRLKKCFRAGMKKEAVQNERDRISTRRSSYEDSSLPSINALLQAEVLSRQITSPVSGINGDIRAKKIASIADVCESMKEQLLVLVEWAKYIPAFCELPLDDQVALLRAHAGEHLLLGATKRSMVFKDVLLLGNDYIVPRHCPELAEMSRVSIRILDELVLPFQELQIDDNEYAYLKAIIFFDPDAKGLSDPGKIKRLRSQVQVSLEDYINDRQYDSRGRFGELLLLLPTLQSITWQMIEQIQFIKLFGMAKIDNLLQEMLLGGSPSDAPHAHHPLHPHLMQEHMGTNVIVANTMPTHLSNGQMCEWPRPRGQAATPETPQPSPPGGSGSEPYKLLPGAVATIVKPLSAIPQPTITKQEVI
- protocolNotes: protein-binding microarray; COS-7 nuclear extract on double-stranded Agilent 4x180k PBM; binding buffer, salt, pH and temperature not given in the material; high values mean tight binding
- measurementConditions: chain copies: 2; label: 3' end of strand 1 on the slide; dsDNA, one strand shown
The full ranking holds about 18,000 sequences; the median of “log2 normalized intensity” is about 0.36, and the highest 2% start at about 7.3. This excerpt belongs to a sample that is enriched for the highest values.
resultType: binding signal (log2 normalized intensity)
Expressed in log2 normalized intensity, but write only the number.

The following sequences have reported results that may help.
# seqString, unitLabel, binding signal
rows = [
    ("GGGGCGATGCTTCCAAAGTCCACAGTCCCCGCCTAGGGAGATTAGAGTATCGGTCGA", "log2 normalized intensity", 3.92),
    ("AGAGCGATCAAAGGTCACAGAGACCACAGGGCCTAGGGAGATTAGAGTATCGGTCGA", "log2 normalized intensity", 5.89),
]

Quick check: binding signal of TTGGACAGGGTGACGTCATTGGAAATCCGAGCCTAGGGAGATTAGAGTATCGGTCGA ?
0.187

###

- testTarget: HNF4alpha8 (COS-7 nuclear extract) (Homo sapiens, UniProt P41235-5 1-452)
- Sequence: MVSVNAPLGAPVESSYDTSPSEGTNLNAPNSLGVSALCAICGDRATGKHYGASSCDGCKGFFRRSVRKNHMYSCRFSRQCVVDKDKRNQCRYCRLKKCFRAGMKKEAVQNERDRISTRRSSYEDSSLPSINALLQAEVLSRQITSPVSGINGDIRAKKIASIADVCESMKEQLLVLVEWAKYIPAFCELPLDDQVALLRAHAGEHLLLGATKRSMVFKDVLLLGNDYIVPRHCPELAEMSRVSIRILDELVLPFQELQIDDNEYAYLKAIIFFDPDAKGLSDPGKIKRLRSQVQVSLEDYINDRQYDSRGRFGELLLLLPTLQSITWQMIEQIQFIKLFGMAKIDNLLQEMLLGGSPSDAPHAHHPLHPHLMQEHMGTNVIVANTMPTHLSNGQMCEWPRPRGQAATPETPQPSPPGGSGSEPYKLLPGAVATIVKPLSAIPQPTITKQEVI
- protocolNotes: protein-binding microarray; COS-7 nuclear extract on double-stranded Agilent 4x180k PBM; binding buffer, salt, pH and temperature not given in the material; high values mean tight binding
- measurementConditions: chain copies: 2; label: 3' end of strand 1 on the slide; dsDNA, one strand shown
Whole data set: some 18,000 sequences, median “log2 normalized intensity” near 0.36, cut for the highest 2% near 7.3. The sample as a whole holds a higher share of the highest values than the screen did.
# strict inequality: binding signal < 3 log2 normalized intensity yields Condition met, everything else yields Condition not met

Illustrative cases are given below, each with its answer.
# seqString, classification
rows = [
    ("TGAGTATCCAAAGGTCAGTGACAAATGTCAGCCTAGGGAGATTAGAGTATCGGTCGA", "Condition not met"),
    ("GATGCTAGGTTTGTGAGTCCAAAGGTCAGCGCCTAGGGAGATTAGAGTATCGGTCGA", "Condition not met"),
    ("CCAGTTCTTTTGACCTTTGCCTCATTCTTAGCCTAGGGAGATTAGAGTATCGGTCGA", "Condition not met"),
    ("CAAGCTGACAAACATGTATCAGTGATAGACGCCTAGGGAGATTAGAGTATCGGTCGA", "Condition met"),
    ("AAAAGGATGCTAGGTTTGTGAGTCCAAAGGGCCTAGGGAGATTAGAGTATCGGTCGA", "Condition not met"),
]

Please determine if AAGGTTGGTTTTTGGAGACAGGAGTAGTCAGCCTAGGGAGATTAGAGTATCGGTCGA is below 3 log2 normalized intensity in terms of binding signal.
Condition met

And then TCACAGTGTGGGGCAAATCTGAGGTCAAAGGCCTAGGGAGATTAGAGTATCGGTCGA , what is it?
Condition met

// same read-out, input: ATCTCCCAGTTCTTTTGACCTTTGCCTCATGCCTAGGGAGATTAGAGTATCGGTCGA
Condition not met

###

- testTarget: HNF4alpha8 (COS-7 nuclear extract) (Homo sapiens, UniProt P41235-5 1-452)
- Sequence: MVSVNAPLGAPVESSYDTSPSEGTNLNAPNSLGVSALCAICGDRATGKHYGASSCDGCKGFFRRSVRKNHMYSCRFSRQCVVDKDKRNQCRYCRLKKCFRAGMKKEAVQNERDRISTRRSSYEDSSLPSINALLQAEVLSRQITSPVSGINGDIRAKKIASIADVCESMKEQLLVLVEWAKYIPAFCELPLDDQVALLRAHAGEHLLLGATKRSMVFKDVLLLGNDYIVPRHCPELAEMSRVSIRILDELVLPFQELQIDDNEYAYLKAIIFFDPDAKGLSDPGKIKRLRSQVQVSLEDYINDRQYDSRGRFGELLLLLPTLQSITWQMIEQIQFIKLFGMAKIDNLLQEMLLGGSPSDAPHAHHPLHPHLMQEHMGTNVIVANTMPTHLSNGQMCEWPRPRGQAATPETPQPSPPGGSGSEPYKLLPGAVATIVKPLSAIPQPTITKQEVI
- protocolNotes: protein-binding microarray; COS-7 nuclear extract on double-stranded Agilent 4x180k PBM; binding buffer, salt, pH and temperature not given in the material; high values mean tight binding
- measurementConditions: chain copies: 2; label: 3' end of strand 1 on the slide; dsDNA, one strand shown
Over roughly 18,000 sequences, “log2 normalized intensity” has its median near 0.36; the highest 2% begin near 7.3. What follows is part of a selection rich in the highest values, with near analogues and random picks from the rest.
resultType: binding signal (log2 normalized intensity)
# unit: log2 normalized intensity | format: bare number

# seqString, binding signal / log2 normalized intensity
data = [
    ("AGATTCTTTCTTCCTTTTGAAAAAGTGAGTGCCTAGGGAGATTAGAGTATCGGTCGA", 0.567),
]

Could you share which binding signal value was measured for GGAACCCCACCCCCACGCCCCCCAGCGGAAGCCTAGGGAGATTAGAGTATCGGTCGA ?
7.38

Same thing, different sequence: TTACTTTTGCAAGGTTTGTTCTTATCATGCGCCTAGGGAGATTAGAGTATCGGTCGA
0.712

Please give the result for ACCGACCTTTGGTTCCTGAACTCAAACCCCGCCTAGGGAGATTAGAGTATCGGTCGA too.
3.35
